measured-target: MAPK15 (human)
assay-protocol: radiometric filter-binding kinase assay
experimental-context: compound 10.0 µM
quantity-measured: residual activity

molecule=COC(=O)/C=C/C(=O)OC result=89%
molecule=FC(F)(F)c1ccc(-c2ccc(Oc3cncc4sc(-c5nn[nH]n5)cc34)cc2)cc1 result=4%
molecule="O=C(NOCC(O)CO)c1ccc(F)c(F)c1Nc1ccc(I)cc1Cl (stereo not given)" result=98%
molecule=CCNc1nc(Nc2cc(F)c(C(=O)N3CCOCC3)cc2OC)ncc1C(F)(F)F result=78%
molecule=Cc1cccc(Nc2nn(C)c3ncnc(N)c23)c1 result=93%
molecule=N#Cc1c(C2CCNCC2)cc(-c2c(O)cccc2OCC2CC2)nc1N result=9%
molecule=NC(=O)c1ccc(-c2ccc(Oc3cncc4sc(-c5nn[nH]n5)cc34)cc2)cc1 result=2%
molecule=c1ccc2c(-c3cnn4cc(-c5ccc(N6CCNCC6)cc5)cnc34)ccnc2c1 result=11%
molecule="CC(C)C[C@H](NC(=O)CNC(=O)c1cc(Cl)ccc1Cl)B1OC(=O)CC(CC(=O)O)(C(=O)O)O1 (stereo not given in full)" result=100%
molecule=NC1(c2ccc(-c3nc4ccn5c(=O)[nH]nc5c4cc3-c3ccccc3)cc2)CCC1 result=93%
